tested on: Klebsiella pneumoniae; test: Antimicrobial activity against colistin-susceptible Klebsiella pneumoniae isolated from bacteremia patient assessed as percentage of resistant isolates by broth microdilution method; type: functional
Where Activity equals or exceeds 20%, the correct label is rule met; where it does not, the label is rule not met.

Ask: Would you say CO/N=C(\C(=O)N[C@@H]1C(=O)N2C(C(=O)O)=C(COC(C)=O)CS[C@H]12)c1csc(N)n1 shows Activity at minimum 20%?
Result: rule not met

Ask: Then this compound: O=C(O)c1cn(C2CC2)c2cc(N3CCNCC3)c(F)cc2c1=O
Result: rule not met

Ask: What do you get for C[C@@H](O)[C@H]1C(=O)N2C(C(=O)O)=C(SCCNC=N)C[C@H]12 [IMIPENEM ANHYDROUS] ?
Result: rule not met

Ask: Can you handle CC1(C)S[C@@H]2[C@H](NC(=O)[C@H](N)c3ccccc3)C(=O)N2[C@H]1C(=O)O next?
Result: rule met

Ask: And what about the compound CC(C)(O/N=C(\C(=O)N[C@@H]1C(=O)N2C(C(=O)[O-])=C(C[n+]3ccccc3)CS[C@H]12)c1csc(N)n1)C(=O)O ?
Result: rule not met

Ask: And for C[C@H]1[C@H](NC(=O)/C(=N\OC(C)(C)C(=O)O)c2csc(N)n2)C(=O)N1S(=O)(=O)O ?
Result: rule not met

----------
tested on: Klebsiella pneumoniae; experiment: Antimicrobial activity against Klebsiella pneumoniae isolated from bacteremia patient assessed as percentage of resistant isolates by broth microdilution method; assay type: functional
VALUE_KIND: Activity

Ask: # get_value(readout='Activity', item= CC(C)(O/N=C(\C(=O)N[C@@H]1C(=O)N2C(C(=O)[O-])=C(C[n+]3ccccc3)CS[C@H]12)c1csc(N)n1)C(=O)O )
Result: 17.7%

Ask: // same read-out, input: C[C@@H](O)[C@H]1C(=O)N2C(C(=O)O)=C(SCCNC=N)C[C@H]12 [IMIPENEM ANHYDROUS]
Result: 0.5%

Ask: Another compound to look at: O=C(O)c1cn(C2CC2)c2cc(N3CCNCC3)c(F)cc2c1=O
Result: 17.7%

Ask: Now consider C[C@H]1[C@H](NC(=O)/C(=N\OC(C)(C)C(=O)O)c2csc(N)n2)C(=O)N1S(=O)(=O)O .
Result: 16.7%

Ask: Also, CO/N=C(\C(=O)N[C@@H]1C(=O)N2C(C(=O)O)=C(COC(C)=O)CS[C@H]12)c1csc(N)n1 please.
Result: 14.5%

Ask: Okay, and CC1(C)S[C@@H]2[C@H](NC(=O)[C@H](N)c3ccccc3)C(=O)N2[C@H]1C(=O)O ?
Result: 91.4%

----------
system: Klebsiella pneumoniae; experiment: Antimicrobial activity against colistin-resistant Klebsiella pneumoniae isolated from bacteremia patient by broth microdilution method; type: functional
VALUE_KIND: MIC50

Ask: Query MIC50 on Klebsiella pneumoniae for CC1(C)S[C@@H]2[C@H](NC(=O)[C@H](N)c3ccccc3)C(=O)N2[C@H]1C(=O)O
Result: 64 µg/mL

Ask: Another compound: C[C@@H](O)[C@H]1C(=O)N2C(C(=O)O)=C(SCCNC=N)C[C@H]12 [IMIPENEM ANHYDROUS]
Result: 0.25 µg/mL

Ask: Please answer likewise for O=C(O)c1cn(C2CC2)c2cc(N3CCNCC3)c(F)cc2c1=O
Result: ≤ 0.06 µg/mL

Ask: And then CC(C)(O/N=C(\C(=O)N[C@@H]1C(=O)N2C(C(=O)[O-])=C(C[n+]3ccccc3)CS[C@H]12)c1csc(N)n1)C(=O)O , what is it?
Result: 0.25 µg/mL

Ask: Then C[C@H]1[C@H](NC(=O)/C(=N\OC(C)(C)C(=O)O)c2csc(N)n2)C(=O)N1S(=O)(=O)O ?
Result: ≤ 0.06 µg/mL

Ask: Another compound to check: CO/N=C(\C(=O)N[C@@H]1C(=O)N2C(C(=O)O)=C(COC(C)=O)CS[C@H]12)c1csc(N)n1
Result: ≤ 0.12 µg/mL
